The measured values listed here are drawn from the kinase profiling compilation of Christmann-Franck et al. (2016).

# tested_on: ACVR1 (human) (UniProt Q04771)
# Sequence (Q04771 whole entry, looked up): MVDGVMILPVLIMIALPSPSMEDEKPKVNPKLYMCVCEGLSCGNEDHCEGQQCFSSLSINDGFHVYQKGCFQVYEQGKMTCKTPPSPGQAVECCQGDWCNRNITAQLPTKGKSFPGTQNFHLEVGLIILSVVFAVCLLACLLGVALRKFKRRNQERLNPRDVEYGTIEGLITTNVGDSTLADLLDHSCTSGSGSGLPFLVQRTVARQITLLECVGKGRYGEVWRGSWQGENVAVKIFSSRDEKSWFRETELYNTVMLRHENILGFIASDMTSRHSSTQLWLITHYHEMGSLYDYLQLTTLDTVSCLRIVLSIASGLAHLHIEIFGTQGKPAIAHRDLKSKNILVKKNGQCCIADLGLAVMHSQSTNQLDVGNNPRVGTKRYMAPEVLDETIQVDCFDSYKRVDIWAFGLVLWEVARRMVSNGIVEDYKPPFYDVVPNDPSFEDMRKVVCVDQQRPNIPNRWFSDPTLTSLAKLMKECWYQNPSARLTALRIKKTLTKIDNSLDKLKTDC
# experiment: KINOMEscan competition binding
# assay_setup: compound 10.0 µM
Each record is given TRUE if its reported kinase still bound, per cent of control is strictly below 50%. Records at or above 50% are given FALSE.

Observe how each entry below is paired with its result.
1) C=CC(=O)Nc1cccc(Oc2nc(Nc3ccc(N4CCN(C)CC4)cc3OC)ncc2Cl)c1 : FALSE
2) CN(C)C/C=C/C(=O)Nc1cccc(Nc2ncc3c(n2)N(C)c2ccccc2C(=O)N3C)c1 : TRUE
3) Cc1ccc(C(=O)Nc2cccc(C(F)(F)F)c2)cc1Nc1cncc(C(N)=O)c1 : FALSE
4) Nc1ccc(-c2ccc3ncc4ccc(=O)n(-c5cccc(C(F)(F)F)c5)c4c3c2)cn1 : FALSE
5) COc1cc(C(=O)NC2CCN(C)CC2)ccc1Nc1ncc2c(n1)N(C1CCCC1)CCC(=O)N2C(C)C : FALSE

Does O=C1Nc2ccc(I)cc2/C1=C/c1cc(Br)c(O)c(Br)c1 have kinase still bound, per cent of control strictly under 50%?
TRUE

Does O=C(NOC[C@H](O)CO)c1ccc(F)c(F)c1Nc1ccc(I)cc1F have kinase still bound, per cent of control strictly under 50%?
FALSE

Does CCC(=O)N1CCN(c2ccc(-n3c(=O)ccc4cnc5ccc(-c6cnc7ccccc7c6)cc5c43)cc2C(F)(F)F)CC1 have kinase still bound, per cent of control strictly under 50%?
TRUE

Does C=CC(=O)Nc1cc(NC(=O)c2ccc(C)c(NC(=O)c3ccno3)c2)cc(C(F)(F)F)c1 have kinase still bound, per cent of control strictly under 50%?
FALSE

Does Cc1cc([C@@H](C)Nc2ccccc2C(=O)O)c2nc(N3CCOCC3)cc(=O)n2c1 have kinase still bound, per cent of control strictly under 50%?
FALSE

Does O=C(NC1CC1)c1cccc(-c2ccc3c(NC(=O)C4CC4)n[nH]c3c2)c1 have kinase still bound, per cent of control strictly under 50%?
TRUE

====

# tested_on: PKN2 (human) (UniProt Q16513)
# Sequence (Q16513 whole entry, looked up): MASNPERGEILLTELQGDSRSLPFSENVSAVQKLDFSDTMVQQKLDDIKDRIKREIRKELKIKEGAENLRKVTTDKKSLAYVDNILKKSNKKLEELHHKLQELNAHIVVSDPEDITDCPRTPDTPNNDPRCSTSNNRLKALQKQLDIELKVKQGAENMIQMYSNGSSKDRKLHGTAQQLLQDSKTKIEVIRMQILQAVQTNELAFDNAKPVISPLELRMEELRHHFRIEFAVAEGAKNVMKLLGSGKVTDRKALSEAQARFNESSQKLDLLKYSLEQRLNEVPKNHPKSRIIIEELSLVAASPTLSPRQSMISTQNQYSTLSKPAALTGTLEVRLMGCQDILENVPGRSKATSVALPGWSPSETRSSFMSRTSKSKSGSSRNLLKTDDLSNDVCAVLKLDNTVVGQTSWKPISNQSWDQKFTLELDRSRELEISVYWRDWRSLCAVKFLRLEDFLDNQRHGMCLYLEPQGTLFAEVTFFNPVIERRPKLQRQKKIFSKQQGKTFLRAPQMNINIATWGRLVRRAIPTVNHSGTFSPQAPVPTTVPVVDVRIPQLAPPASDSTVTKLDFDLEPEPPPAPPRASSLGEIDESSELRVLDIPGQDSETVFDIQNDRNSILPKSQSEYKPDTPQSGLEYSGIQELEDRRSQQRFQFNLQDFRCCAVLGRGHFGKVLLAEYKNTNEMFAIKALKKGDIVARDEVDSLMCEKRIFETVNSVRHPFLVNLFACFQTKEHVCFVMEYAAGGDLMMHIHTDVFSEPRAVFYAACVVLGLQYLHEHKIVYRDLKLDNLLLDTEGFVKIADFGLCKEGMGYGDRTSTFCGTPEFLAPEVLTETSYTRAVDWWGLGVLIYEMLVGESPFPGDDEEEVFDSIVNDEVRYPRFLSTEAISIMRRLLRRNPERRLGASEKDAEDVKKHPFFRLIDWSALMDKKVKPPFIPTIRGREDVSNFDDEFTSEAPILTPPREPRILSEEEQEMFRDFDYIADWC
# experiment: KINOMEscan competition binding
# assay_setup: compound 10.0 µM
Below is a list of entries, each paired with its recorded kinase still bound, per cent of control value.
Give just the numeric value; % need not be written.

Some entries whose results are on file:
1. C=CC(=O)Nc1cccc(Oc2nc(Nc3ccc(N4CCN(C)CC4)cc3OC)ncc2Cl)c1 : 100
2. C=CC(=O)Nc1cccc(Nc2nc(N[C@H]3CC[C@H](N(C)C)CC3)nc3c2ncn3C(C)C)c1 : 61

Given the molecule COc1cc(C(=O)NC2CCN(C)CC2)ccc1Nc1ncc2c(n1)N(C1CCCC1)CCC(=O)N2C(C)C and test system PKN2 (human) (UniProt Q16513), the measured kinase still bound, per cent of control is 100

Given the molecule C[C@@H](Oc1cc(-n2cnc3ccc(CN4CCN(C)CC4)cc32)sc1C(N)=O)c1ccccc1C(F)(F)F and test system PKN2 (human) (UniProt Q16513), the measured kinase still bound, per cent of control is 6

Given the molecule Nc1ccc(-c2ccc3ncc4ccc(=O)n(-c5cccc(C(F)(F)F)c5)c4c3c2)cn1 and test system PKN2 (human) (UniProt Q16513), the measured kinase still bound, per cent of control is 72

====

# tested_on: FGFR4 (human) (UniProt P22455)
# Sequence (P22455 whole entry, looked up): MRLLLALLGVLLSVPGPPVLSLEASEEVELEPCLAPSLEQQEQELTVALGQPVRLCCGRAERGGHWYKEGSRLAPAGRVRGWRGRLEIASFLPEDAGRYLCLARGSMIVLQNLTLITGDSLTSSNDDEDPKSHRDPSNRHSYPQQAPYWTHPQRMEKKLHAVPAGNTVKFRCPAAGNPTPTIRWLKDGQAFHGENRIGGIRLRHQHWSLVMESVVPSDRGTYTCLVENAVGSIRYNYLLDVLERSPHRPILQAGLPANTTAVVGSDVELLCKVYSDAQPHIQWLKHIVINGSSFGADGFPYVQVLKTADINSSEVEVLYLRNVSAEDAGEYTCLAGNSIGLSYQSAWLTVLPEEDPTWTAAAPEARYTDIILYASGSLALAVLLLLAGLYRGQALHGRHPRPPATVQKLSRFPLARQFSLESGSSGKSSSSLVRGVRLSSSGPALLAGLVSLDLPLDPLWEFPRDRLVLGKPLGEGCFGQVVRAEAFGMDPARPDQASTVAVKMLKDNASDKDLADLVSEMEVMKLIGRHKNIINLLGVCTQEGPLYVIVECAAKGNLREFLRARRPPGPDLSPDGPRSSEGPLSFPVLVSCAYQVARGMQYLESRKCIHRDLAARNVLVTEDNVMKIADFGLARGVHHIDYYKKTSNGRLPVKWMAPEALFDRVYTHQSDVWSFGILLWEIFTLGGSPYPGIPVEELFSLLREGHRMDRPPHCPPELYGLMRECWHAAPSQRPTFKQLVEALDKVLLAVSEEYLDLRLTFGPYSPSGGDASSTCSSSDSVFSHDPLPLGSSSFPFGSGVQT
# experiment: KINOMEscan competition binding
# assay_setup: compound 10.0 µM
measurement_type: kinase still bound, per cent of control (%)
Give just the numeric value; % need not be written.

Some entries whose results are on file:
1. CC[C@@H]1C(=O)N(C)c2cnc(Nc3ccc(C(=O)NC4CCN(C)CC4)cc3OC)nc2N1C1CCCC1 : 100
2. COc1cc(C(=O)NC2CCN(C)CC2)ccc1Nc1ncc2c(n1)N(C1CCCC1)C(C)CC(=O)N2C (stereo not given) : 100
3. CCN1CCN(Cc2ccc(Nc3ncc4c(n3)N(C)c3ccccc3C(=O)N4C)cc2C(F)(F)F)CC1 : 36
4. C=CC(=O)Nc1cc(NC(=O)c2ccc(C)c(NC(=O)c3ccno3)c2)cc(C(F)(F)F)c1 : 100
5. Cc1ccc(NC(=O)c2cccc(C(C)(C)C#N)c2)cc1Nc1ccc2ncn(C)c(=O)c2c1 : 100

Notebook: CN(C)C/C=C/C(=O)Nc1cccc(Nc2ncc3c(n2)N(C)c2ccccc2C(=O)N3C)c1 , kinase still bound, per cent of control read as 22

Notebook: N#Cc1c(NC(=O)c2cccc3ccccc23)sc2c1CCCC2 , kinase still bound, per cent of control read as 49

Notebook: C=CC(=O)Nc1cccc(Nc2nc(N[C@H]3CC[C@H](N(C)C)CC3)nc3c2ncn3C(C)C)c1 , kinase still bound, per cent of control read as 98

Notebook: C=CC(=O)Nc1cccc(Oc2nc(Nc3ccc(N4CCN(C)CC4)cc3OC)ncc2Cl)c1 , kinase still bound, per cent of control read as 100

Notebook: C[C@@H](Oc1cc(-n2cnc3ccc(CN4CCN(C)CC4)cc32)sc1C(N)=O)c1ccccc1C(F)(F)F , kinase still bound, per cent of control read as 100

Notebook: Nc1ccc(-c2ccc3ncc4ccc(=O)n(-c5cccc(C(F)(F)F)c5)c4c3c2)cn1 , kinase still bound, per cent of control read as 100
